test: Toxicity in C57BL/6 mouse assessed as maximum tolerated dose administered as single dose via oral gavage for 3 days measured 4 hrs after final dose; format: organism-based; conditions: in vivo
PROPERTY_LABEL: MTD at 4 h (mg/kg)
Response body: numeric value in mg/kg, unit text excluded.

Q. Which MTD at 4 h is reported for this molecule? CSSc1cccc[n+]1[O-]
A. 30

###

system: Mycolicibacterium smegmatis; experiment: Antibacterial activity against Mycobacterium smegmatis after 72 hrs; format: functional
PROPERTY_LABEL: log10 of MIC (log10 of the value in µg/mL)
In plain terms, each number is the log10 of measured MIC in µg/mL.

Q. Which log10 of MIC is reported for this compound? CSSc1cccc[n+]1[O-]
A. 0.90

Q. Which log10 of MIC is reported for this compound? CSSc1ncccn1
A. 0.90

Q. Which log10 of MIC is reported for this compound? CSCSSc1cccc[n+]1[O-]
A. 0.60

Q. Which log10 of MIC is reported for this compound? CSSc1ccc2ccccc2n1
A. 0.90

Q. Which log10 of MIC is reported for this compound? NNC(=O)c1ccncc1
A. -0.60

Q. Which log10 of MIC is reported for this compound? CSSc1ccccn1
A. 0.90

Q. Which log10 of MIC is reported for this compound? CSSc1ccccc1
A. 1.81

Q. Which log10 of MIC is reported for this compound? CC[C@@H](CO)NCCN[C@@H](CC)CO
A. 1.51

Q. Which log10 of MIC is reported for this compound? CSSc1cccs1
A. 1.81

Q. Which log10 of MIC is reported for this compound? [O-][n+]1ccccc1SSc1cccc[n+]1[O-]
A. 1.20

Taken from ChEMBL document CHEMBL1151981.
